# system: pyranose oxidase (Trametes versicolor, UniProt P79076)
# Construct: purified, about 290 kDa by gel filtration; mature N-terminus […] in fungal enzyme; pPRME18 is the alternative N-terminally shortened construct
# assayOverview: Substrate specificity of pyranose oxidase (hydrogen peroxide / 4-aminoantipyrine-phenol-peroxidase colour reaction)
# Type: biochemical, Coriolus versicolor
# conditions: substrate 3.3 mM; relative to glucose = 100%; 2.5 units of pyranose oxidase; 37° C., pH 7.0; read-out: relative activity (%)
readoutLabel: activity at 3300 µM (%)
Answer with a number only, understood to be in %.

Guide cases for activity at 3300 µM, answers given:
[[record]]
molecule = "OC1OC[C@@H](O)[C@H](O)[C@H]1O (stereo partly shown)"
readoutlabel = "activity at 3300 µM"
unittext = "%"
testvalue = 6.5

[[record]]
molecule = "OC[C@H]1O[C@@](CO)(O[C@H]2O[C@H](CO)[C@@H](O)[C@H](O)[C@H]2O)[C@@H](O)[C@@H]1O"
readoutlabel = "activity at 3300 µM"
unittext = "%"
testvalue = 0

[[record]]
molecule = "OC[C@@H](O)[C@H](O)[C@@H](O)CO"
readoutlabel = "activity at 3300 µM"
unittext = "%"
testvalue = 0

[[record]]
molecule = "OC[C@H]1OC(O)C[C@@H](O)[C@@H]1O (stereo partly shown)"
readoutlabel = "activity at 3300 µM"
unittext = "%"
testvalue = 1.6

[[record]]
molecule = "C[C@@H]1OC(O)[C@H](O)[C@H](O)[C@H]1O (stereo partly shown)"
readoutlabel = "activity at 3300 µM"
unittext = "%"
testvalue = 0.1


Here is the next item to consider.
Qu. Please report activity at 3300 µM for the following molecule: OC[C@H]1OC[C@H](O)[C@@H](O)[C@@H]1O [1,5-anhydro-D-glucitol]
Ans. 14.2
